The measured values listed here are drawn from ChEMBL document CHEMBL3792352.

- Measurement target: Proteasome Macropain subunit MB1 (Homo sapiens)
- Sequence (P28074 whole entry): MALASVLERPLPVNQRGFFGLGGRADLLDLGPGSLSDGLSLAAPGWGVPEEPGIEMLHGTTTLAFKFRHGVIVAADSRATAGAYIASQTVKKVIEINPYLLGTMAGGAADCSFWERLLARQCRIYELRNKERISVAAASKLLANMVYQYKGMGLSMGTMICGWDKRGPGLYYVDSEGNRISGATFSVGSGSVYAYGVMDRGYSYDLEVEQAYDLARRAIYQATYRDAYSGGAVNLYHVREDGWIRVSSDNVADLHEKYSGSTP
- Protocol notes: Inhibition of chymotrypsin like activity of human 20S proteasome using Suc-Leu-Leu-Val-Tyr-AMC as substrate preincubated for 10 mins followed by substrate addition measured after 1 hr by spectrofluorimetric analysis
- Settings: read-out: IC50
Observation type: log10 IC50 (log10 of the value in nM)

Compound	log10 IC50
CC(C)C[C@H](NC(=O)[C@H](Cc1ccccc1)NC(=O)C1CCCc2ccccc21)B1OC2C[C@@H]3C[C@@H](C3(C)C)[C@]2(C)O1 (stereo partly specified)	0.62
CC(C)C[C@H](NC(=O)[C@H](Cc1ccc(C(F)(F)F)cc1)NC(=O)c1cc(Cl)ccc1Cl)B(O)O	0.92
CC(=O)N[C@@H](Cc1ccccc1)C(=O)N[C@@H](CC(C)C)B1OC2C[C@@H]3C[C@@H](C3(C)C)[C@]2(C)O1 (stereo partly specified)	0.37
CC(C)C[C@H](NC(=O)[C@H](Cc1ccc2ccccc2c1)NC(=O)C1CCCc2ccccc21)B1OC2C[C@@H]3C[C@@H](C3(C)C)[C@]2(C)O1 (stereo partly specified)	0.88
CC(C)C[C@H](NC(=O)[C@H](Cc1cccc2ccccc12)NC(=O)c1ccc2ccccc2c1)B1OC2C[C@@H]3C[C@@H](C3(C)C)[C@]2(C)O1 (stereo partly specified)	0.39
COc1ccc(C[C@H](NC(=O)c2cc(Cl)ccc2Cl)C(=O)N[C@@H](CC(C)C)B(O)O)c(OC)c1	0.66
CC(C)C[C@H](NC(=O)[C@H](Cc1cccc2ccccc12)NC(=O)C1CCCc2ccccc21)B1OC2C[C@@H]3C[C@@H](C3(C)C)[C@]2(C)O1 (stereo partly specified)	0.63
CC(C)C[C@H](NC(=O)[C@H](Cc1ccc(C(F)(F)F)cc1)NC(=O)c1cnccn1)B(O)O	1.63
CC(C)C[C@H](NC(=O)[C@H](Cc1ccc(O)cc1)NC(=O)OC(C)(C)C)B1OC2C[C@@H]3C[C@@H](C3(C)C)[C@]2(C)O1 (stereo partly specified)	1.21
CC(C)C[C@H](NC(=O)[C@H](Cc1ccccc1)NC(=O)c1cccc2c1CCCC2)B1OC2C[C@@H]3C[C@@H](C3(C)C)[C@]2(C)O1 (stereo partly specified)	-0.12
Cc1ccc(C[C@H](NC(=O)[C@H](Cc2ccccc2)NC(=O)C2CCc3ccccc3C2)B2OC3C[C@@H]4C[C@@H](C4(C)C)[C@]3(C)O2)cc1 (stereo partly specified)	0.06
CC(C)C[C@H](NC(=O)[C@H](Cc1ccccc1)NC(=O)c1cnccn1)B1OC2C[C@@H]3C[C@@H](C3(C)C)[C@]2(C)O1 (stereo partly specified)	0.28
CC(C)C[C@H](NC(=O)[C@H](Cc1c[nH]c2ccccc12)NC(=O)C1CCCc2ccccc21)B1OC2C[C@@H]3C[C@@H](C3(C)C)[C@]2(C)O1 (stereo partly specified)	0.56
CC(C)C[C@H](NC(=O)[C@H](Cc1cccc2ccccc12)NC(=O)c1cccc2c1CCCC2)B1OC2C[C@@H]3C[C@@H](C3(C)C)[C@]2(C)O1 (stereo partly specified)	0.13
CC(C)C[C@H](NC(=O)[C@H](Cc1ccc2ccccc2c1)NC(=O)[C@H]1CCCc2ccccc21)B1OC2C[C@@H]3C[C@@H](C3(C)C)[C@]2(C)O1 (stereo partly specified)	0.79
CCCC[C@H](NC(=O)[C@H](CC(C)C)NC(=O)OC(C)(C)C)B1OC2C[C@@H]3C[C@@H](C3(C)C)[C@]2(C)O1 (stereo partly specified)	1.69
Cc1ccc(C[C@H](NC(=O)[C@H](Cc2c[nH]c3ccccc23)NC(=O)OCc2ccccc2)B2OC3C[C@@H]4C[C@@H](C4(C)C)[C@]3(C)O2)cc1 (stereo partly specified)	0.52
CCC(C)[C@H](NC(=O)C1CCCc2ccccc21)C(=O)N[C@@H](CC(C)C)B1OC2C[C@@H]3C[C@@H](C3(C)C)[C@]2(C)O1 (stereo partly specified)	1.24
CC(C)C[C@H](NC(=O)[C@H](Cc1c[nH]c2ccccc12)NC(=O)OCc1ccccc1)B1OC2C[C@@H]3C[C@@H](C3(C)C)[C@]2(C)O1 (stereo partly specified)	1.61
CCCC[C@H](NC(=O)[C@H](Cc1ccccc1)NC(C)=O)B1OC2C[C@@H]3C[C@@H](C3(C)C)[C@]2(C)O1 (stereo partly specified)	0.93
CC(C)C[C@H](NC(=O)[C@H](Cc1ccccc1)NC(=O)[C@H]1CCCc2ccccc21)B1OC2C[C@@H]3C[C@@H](C3(C)C)[C@]2(C)O1 (stereo partly specified)	0.05
CC(C)C[C@H](NC(=O)[C@H](Cc1ccc2ccccc2c1)NC(=O)c1cccc2c1CCCC2)B1OC2C[C@@H]3C[C@@H](C3(C)C)[C@]2(C)O1 (stereo partly specified)	0.06
CC(C)C[C@H](NC(=O)[C@H](Cc1ccccc1)NC(=O)C1CCc2ccccc2C1)B1OC2C[C@@H]3C[C@@H](C3(C)C)[C@]2(C)O1 (stereo partly specified)	0.16
CC(C)C[C@H](NC(=O)OC(C)(C)C)C(=O)N[C@@H](Cc1ccccc1)B1OC2C[C@@H]3C[C@@H](C3(C)C)[C@]2(C)O1 (stereo partly specified)	2.08
CC(C)C[C@H](NC(=O)[C@H](CC(C)C)NC(=O)C1CCCc2ccccc21)B1OC2C[C@@H]3C[C@@H](C3(C)C)[C@]2(C)O1 (stereo partly specified)	1.15
CC1(C)[C@@H]2CC3OB([C@H](Cc4ccc(F)cc4)NC(=O)[C@H](Cc4ccccc4)NC(=O)c4cnccn4)O[C@@]3(C)[C@H]1C2 (stereo partly specified)	0.51
